- Test system: D54 LucT luciferase reporter counterscreen, luminescence, 24 h
- test: reporter signal increase, D54 LucT cells – cell-based, luminescence, cherry pick, counter-screen for N-linked glycosylation inhibitor project, dose response (AID 624404)
Records with an inconclusive call do not appear.
recorded_metric: AC35

// worked examples, AC35 included
1) NNC(=O)c1oc2nc(-c3cccs3)cc(-c3ccco3)c2c1N    2930 nM
2) O=C1[C@H]2[C@@H](c3ccc(F)cc3)N3C(=O)N(c4cccc(Br)c4)C(=O)[C@@]3(Cc3ccccc3)[C@H]2C(=O)N1C1CCCCC1    480 nM
3) Cc1ccc2c(c1)[C@H]1[C@H](CO2)[C@H](c2ccccc2)[C@]2(C)C(=O)Nc3ccc(Br)cc3C(=O)N12    1760 nM

Next up:
-- ask # query: AC35 | item CC1(C(=O)NCC2CCOCC2)Cc2c(-c3cccc(C(F)(F)F)c3)ccnc2O1 (centres undefined) | system: D54 LucT luciferase reporter counterscreen, luminescence, 24 h
-- reply 32.5 nM
